Experiment: ATG_DR4_LXR_CIS: Attagene CIS-FACTORIAL HepG2 Assay for human Liver X Receptor (LXR), DR4 submotif (AID 2282929)
Conditions: HepG2 Attagene DR4 cis-reporter, mRNA transcription; actives raise or lower the signal
Protocol: ATG_CIS is a cell-based, multiplexed-readout assay that uses HepG2, a human liver cell line, with measurements taken at 24 hours after chemical dosing in a 24-well plate.ATG_DR4_LXR_CIS is one of 52 assay component(s) measured or calculated from the ATG_CIS assay. […] This assay endpoint, ATG_DR4_LXR_CIS, was analyzed with bidirectional fitting relative to DMSO as the negative control and baseline of activity. […]
The source made the active and inactive calls. The calls were made as follows: active = hit-call score of the fitted dose curve at least 0.9, where 1 is the maximum; inactive = score below 0.9.
Reply using exactly one outcome from active, inactive

Data request: Name the outcome recorded for "CCO/C=C1\N=C(c2ccccc2)OC1=O" in the assay.
Data returned: inactive

Data request: Name the outcome recorded for OCC(O)c1ccccc1 (configuration not stated) in the assay.
Data returned: inactive

Data request: Name the outcome recorded for "C=CCOC(=O)CCCCCC" in the assay.
Data returned: inactive

Data request: Name the outcome recorded for "C=C(C)CNCC" in the assay.
Data returned: inactive

Data request: Name the outcome recorded for CCC(Cl)C(Cl)C(Cl)CC(Cl)C(Cl)C(C)Cl (configuration not stated) in the assay.
Data returned: active

Data request: Name the outcome recorded for "Cc1c(C2(c3cc(Br)c(O)c(Br)c3C)OS(=O)(=O)c3ccccc32)cc(Br)c(O)c1Br" in the assay.
Data returned: inactive

Data request: Name the outcome recorded for "CC1(C)C2=CCCC(C)(C)[C@]23CC[C@H]1C3" in the assay.
Data returned: active
